Measurement Protocol: yeast display, Sf9 membrane polyspecificity reagent, FACS + sequencing; frameworks hold sequencing errors
Measure Name: polyreactivity (PSR sort gate)

In the examples that follow, each entry is paired with its recorded polyreactivity (PSR sort gate).
| Sequence | Result |
| --- | --- |
| QVQLVETGRGLVQAGGSLRLSCAASGLTFKFNAMGWYRQAPGKEREFVAAISRSGGRTYYAESVKGRFTISRDNAKNTVYFQMNSLKPEDTAVYFCADEEIVYYPVLFEYDYWGQGTQVTASS | high polyreactivity |
| QVQLVESGGGLVQAGGSLRLSSAASGRTFGKYAMGWYRQAPGKESELVAAITNSGGSTYYADSVKGRFTISRDNAKNTVYLQMISLKPEDTAVYYCNRLGYRGPSILNHMGYWGQGTQVTVSS | high polyreactivity |
| QVQLVESGGGLVQAGGSLRLSCAASGRTFPLYDMGWYRQAPGKERELVAAISLSGGRTYYADSVKGRFTISRDNAKNTVYLQMNSLKPEDTAVYYCAARGTLSAQVGIRRYDYWGQGTQVTVSS | low polyreactivity |
| QVQLVESGGGLVQAGGSLRLSCAASGITFDYYPMGWYRQEPGKERELVAVITWSVGSTKYADSVKGRFTISRDNAKNTVYLLMNRLKPEETAVYNCNPRPPRWVRSMDYWGHGTQVTVSS | high polyreactivity |

# evaluate next
State the recorded polyreactivity (PSR sort gate) for this entry: QVQLVESGGGLVQAGGTLRLSCAASGRIFTRYAMGWYRQAPGKERELVAAISYGGGVTYYADSVKGRFTISRDNAKNTVYLQMNSLKPEDTAVYYCATDDPLSQINEKGMDYWGQGTQVTVSS
low polyreactivity

---

Measurement Protocol: yeast display, Sf9 membrane polyspecificity reagent, FACS + sequencing; frameworks hold sequencing errors
Measure Name: polyreactivity (PSR sort gate)

In the examples that follow, each entry is paired with its recorded polyreactivity (PSR sort gate).
| Sequence | polyreactivity (PSR sort gate) |
| --- | --- |
| QVQLVESGGGLVQAGGSLRLSCAASGFTFRGYDMGWYRQAPGKERELVAAISGGVSTNYADSVKGRFTISRDNAKNTVYLQMNSLKPEDTAVYYCAAVPVSAGYSSIFDYWGQGTQVTVSS | low polyreactivity |
| QVQLVESGGGLVQAGGSLRLSCAASGFIFVPYAMGWYRQAPGKERELVAAITWSGASTYYADSVKGRFTISRDNAKNTVYLQMNRLKPEDTAVYYCAAENWLPQTGGYYWYDYWGQGTQVTVSS | high polyreactivity |
| QVQLVDSGGGLVQAGGSLRLSCAASGFTFYRYAMGWYRPAPGKERELVAGITGSGGNTYYADSVKGRFTISRDNAKNTVYLQMNSLKPEDTAVYYCAAEDYVGWYNFEYWGQGNQVTVSS | high polyreactivity |
| QVQIVESGGGLVQAGGSLSLSCADYGSTFYHNVMGWYRQAPGKERELVASIDTGDSTNYADSVKGRFTISRDNAKNTVYLQMNSLKPEYTAVYYCNADSYPALNKRGYDYWGQGTQVTVSS | low polyreactivity |
| QVQLVESGGGLGQAGGSLRLICAASGSTFRHYAMGWYRPAPRKERELVAVISWGGTSTYYADSVKGRFTISRDNAKNTVYLQMNSLKPEDTAVYYCNKAYFPIFKGYEMYYWGQGTQVTVSS | low polyreactivity |

State the recorded polyreactivity (PSR sort gate) for this entry: QVQLVESGGGLVQAGGSLRLSCAASGNIFDRYVMGWYRQAPGKERELVAAISVSGGSTYYADSVKGRFTISRDNAKNTVFLQMNSLKPEDTAVYYCAAHSRLINWYDYWGQGTQVTVSS
high polyreactivity

State the recorded polyreactivity (PSR sort gate) for this entry: QVQLVESGGGLVQAGGSLRLSCAASGRTFWIYAMGWYRQAPGKERELVAGISRSGGSTNYADSVKGRFTISRDNAKNTVYLQMNSLKPEDTAVYYCNTDPYSSAWYNYDYWGQGTQVTVSS
low polyreactivity

State the recorded polyreactivity (PSR sort gate) for this entry: QVQLVESGGGLVQAGGSLRLSCAASGSTFPRNAMGWYRQAPGKERELVAVITGSGGSTYYADSVKGRFTISRDNAKNTVYLQMNSLKPEDTAVYYCNARPTRRTRYDSWGQGTQVTVSS
high polyreactivity

State the recorded polyreactivity (PSR sort gate) for this entry: QVQLVESGGGLVQAGGSLRLSCAASGRIFSYYAMRWFRQAPGKERELVAAISSGGSTNYADSVKGRFTISRDNAKNTVYLQMNSLKPEDTAVYYCNAVRGWTTRYDYWGQGTQVTVSS
high polyreactivity

State the recorded polyreactivity (PSR sort gate) for this entry: QVQLVESGGGLVQAGGSLRISSAAYGRIIYGYAMGWYRQAPGKERELVAAITWRGTSTYYADSVKGRFTISRDNAKNTVYLQMNCLKPEDTAVYYCNAVRSLAYWGQGTQVTVSS
high polyreactivity

State the recorded polyreactivity (PSR sort gate) for this entry: QVQLVESVGGLVQAGGSLRLSCAASGFIIRYYAMGWYRQAPGKERELVAVISSNGARTSYADSVKGRFTISRDNAKNTVYLQMNSLKPEDTAVYYCNARAWSRFPPVGHDYWGQGTQVTVSS
high polyreactivity

State the recorded polyreactivity (PSR sort gate) for this entry: QVQLVESGGGLVQAGGSLRLSCAASGYTFLGYAMGWYRQAPGKERELVAAIRRSGGRPYYADSVKGRFTISRDNAKNTVYLQINRLKPEDTAVYYCAQGYVGEYDYWGQGTQVTVTS
high polyreactivity

---

Measurement Protocol: yeast display, Sf9 membrane polyspecificity reagent, FACS + sequencing; frameworks hold sequencing errors
Measure Name: polyreactivity (PSR sort gate)

| Sequence | Result |
| --- | --- |
| QVQLVESGGGLVQAGGSLRLSCAASGSTFDYYAMGWYRQAPGKERELVAAISSSGSSTYYADSVKGRFTISRDNAKNTVYLQMNSLKPEDTAVYYCNALSNVPYDYWGQGTQVTVSS | low polyreactivity |
| QVQLVESGGGLVQAGGSLRLSCAASGSIFWWNAMGWYRQAPGKERELVAGISRGGSTYYADSVKGRFTISRDNAKNTVYLQMNSLKPEDTAVYYCNADSDPVPAGYDYWGQGTQVTLSS | low polyreactivity |

---

Measurement Protocol: yeast display, Sf9 membrane polyspecificity reagent, FACS + sequencing; frameworks hold sequencing errors
Measure Name: polyreactivity (PSR sort gate)

| Sequence | polyreactivity (PSR sort gate) |
| --- | --- |
| QVQLVESGGGLVQAGGSLRLSCAASGFTWSYAMGWYRQAPGKERELVATISDGVSTNYADSVKGRFTISRDNAKNTVYLQMNSLKPEDTAVYYCAARYTSWGMGYWGQGTQVTVSS | low polyreactivity |
| QVQLVESGGGLVQAGGSLRISCAASGRIFYFNGMGWYRQAPGKERELVAAITSGGSTYYADSVKGRFTISRDNAKNTVYLQMNSLKPEDTAVYYCAAQNAWWSNGRSYDYWGQGTQVTVSS | low polyreactivity |
| QVQLVESGGGLVQAGGSLRLSCAASGTFPGNAMGWYRQPPGKERELVATITRGGRTYYADSVKGRVTISRDNANNTVYLQMNSLKPEDTAVYYCNTSVYSGKIRGYDYGGQGTQVTVSS | high polyreactivity |
| QVQLVESGGGLVQAGGSLRLSCAASGIIFGYYAMGWYRQAPGKERELVAGITYRTGSTYYADSVKGRFTISRDNAKNTVYLQMNFLKPEDTAVYYCAATQYKRKYSSWYYYWGQGTQVTVSS | high polyreactivity |
| QVQLVESGGGLVQAGGSLRLSCAASGSTFYSYAMGWYRQAPGKERELVAAISWNGGSTYYADSVKGRFTISRDNAKNTVYLQMNRLKPEDTAVYYCAALRYVHGYDYWGQGTQVTVSS | high polyreactivity |
| QVQLVESGGGIVQAGGSLRLSCSASGRNSGVNAMGSYRQAPGKERELVATISGSGGRTYYADSVKERFTISRDNAKNTVYLQMNSLKPEDTAVYYCNTLVQRGGYFSRGFDYWGQGTQVTVSS | low polyreactivity |
| QVQLVESAGGLVQAGGRLRLSCAASGSTFSYYAMGWYRQAPGKEREWVAAISRSGGSTYYADSVKGRFTISRDNAKNTVYLQLNSLKPDDTAVYYCNRYYYTVTREFDYWGQGTQVTVSS | low polyreactivity |
| QVQLVESGGGLVQAGGSLRLSCAASGSIFRYYAMGWYRQAPGKERELVAAITSGGSTSYADSVKGRFTISRDNAKNTVYLQMNSLKPEDTAVYYCAKRSRHNKYYYWGQGTQVTVSS | high polyreactivity |

State the recorded polyreactivity (PSR sort gate) for this entry: QVQLVESGGGLVQAGGSLRISCAASGSTFDPNVMGWYRQAPGKERELVAVITTTGVSTYYADSVKGRFTISRDNAKNTVYLQMNSLKPEETAVYYCNAKWYWYLTRDDFRYRYTYDYWGQGTQVTVSS
low polyreactivity

Entry source: the nanobody polyreactivity screen of Harvey et al. (2022)
